Assay: Pharmacokinetics test (digestive tract absorption and metabolic characteristics) in rats
Assay type: in vivo
Conditions: 10 mg/kg, Iv
Test Readout: MRT (h)

Smiles String: CC(C)[C@H](NC(=O)COc1cccc(N(C)C)c1)C(=O)N[C@@H](Cc1ccccc1)[C@H](O)C(=O)N1CSC(C)(C)[C@H]1C(=O)NC(C)(C)C
Experimental Value: 1.13

Smiles String: COc1cccc2cc(C(=O)N[C@H](C(=O)N[C@@H](Cc3ccccc3)[C@H](O)C(=O)N3CSC(C)(C)[C@H]3C(=O)NCc3ccccc3C)C(C)C)oc12
Experimental Value: 1.12

Smiles String: COC(=O)N[C@H](C(=O)N[C@@H](Cc1ccccc1)[C@H](O)C(=O)N1CSC(C)(C)[C@H]1C(=O)NCc1ccccc1C)C(C)C
Experimental Value: 1.18

Smiles String: CC[C@H](NC(=O)COc1cccc(N(C)C)c1)C(=O)N[C@@H](Cc1ccccc1)[C@H](O)C(=O)N1CSC(C)(C)[C@H]1C(=O)NC(C)(C)C
Experimental Value: 2.07

###

Experiment: Pharmacokinetics test (digestive tract absorption and metabolic characteristics) in rats
Assay type: in vivo
Details: 10 mg/kg, Id (in the duodenum)
Test Readout: AUC (µg·min/mL)

Smiles String: COC(=O)N[C@H](C(=O)N[C@@H](Cc1ccccc1)[C@H](O)C(=O)N1CSC(C)(C)[C@H]1C(=O)NCc1ccccc1C)C(C)C
Unit Tag: µg·min/mL
Experimental Value: 87

Smiles String: CC(C)[C@H](NC(=O)COc1cccc(N(C)C)c1)C(=O)N[C@@H](Cc1ccccc1)[C@H](O)C(=O)N1CSC(C)(C)[C@H]1C(=O)NC(C)(C)C
Unit Tag: µg·min/mL
Experimental Value: 105

Smiles String: CC[C@H](NC(=O)COc1cccc(N(C)C)c1)C(=O)N[C@@H](Cc1ccccc1)[C@H](O)C(=O)N1CSC(C)(C)[C@H]1C(=O)NC(C)(C)C
Unit Tag: µg·min/mL
Experimental Value: 185

Smiles String: COc1cccc2cc(C(=O)N[C@H](C(=O)N[C@@H](Cc3ccccc3)[C@H](O)C(=O)N3CSC(C)(C)[C@H]3C(=O)NCc3ccccc3C)C(C)C)oc12
Unit Tag: µg·min/mL
Experimental Value: 90

###

Target: recombinant HIV-1 protease (Human immunodeficiency virus type 1 group M subtype B, UniProt P04585)
Construct: measured using a recombinant HIV-1 protease
Test: Evaluation of enzyme inhibition constant Ki
Type: biochemical
Details: reversible tight-binding inhibitor model; test compound 1-100 nM; 15 min at 37° C., pH 5.5; read-out: Enzyme inhibition constant Ki
pKi: −log10 of the molar value.

Compound: Cc1ccccc1CNC(=O)[C@H]1N(C(=O)[C@@H](O)[C@H](Cc2ccccc2)NC(=O)[C@H](CC(N)=O)NC(=O)c2cc(=O)c3ccccc3o2)CSC1(C)C [Example 6]
pKi: 11.77

###

Measured pKi accompanies every entry in the list below.
Target: recombinant HIV-1 protease (Human immunodeficiency virus type 1 group M subtype B, UniProt P04585)
Construct: measured using a recombinant HIV-1 protease
Assay: Evaluation of enzyme inhibition constant Ki
Format: biochemical
pKi: −log10 of the molar value.

Compound: CC[C@H](NC(=O)OC)C(=O)N[C@@H](Cc1ccccc1)[C@H](O)C(=O)N1CSC(C)(C)[C@H]1C(=O)NCc1ccccc1C
pKi: 9.62
//
Compound: CC(C)(C)NC(=O)[C@H]1N(C(=O)[C@@H](O)[C@H](Cc2ccccc2)NC(=O)[C@H](CC(N)=O)NC(=O)OCc2ccccc2)CSC1(C)C [reference compound]
pKi: 9.67
//
Compound: CC(C)[C@H](NC(=O)COc1cccc(N(C)C)c1)C(=O)N[C@@H](Cc1ccccc1)[C@H](O)C(=O)N1CSC(C)(C)[C@H]1C(=O)NC(C)(C)C
pKi: 10.15
//
Compound: Cc1ccccc1CNC(=O)[C@H]1N(C(=O)[C@@H](O)[C@H](Cc2ccccc2)NC(=O)[C@H](CC(N)=O)NC(=O)c2cc3ccccc3o2)CSC1(C)C
pKi: 11.32

Source: patent US6291432A
